Test system: male, Sprague-Dawley rats
Assay Explanation: Catalepsy Test in Rats
Test Settings: 50 mg/kg IP, Pre-Reaction Time 60 min
Measured Attribute: Catalepsy (%)
Give your result in % as a bare value.

Solved cases below.
INSERT INTO results (compound, measured_result) VALUES
  ('CC(C)Oc1ccccc1C1CCN(Cc2cccc(C(=O)N3CCCCCC3)c2)CC1 [Compound 39]', 17.3),
  ('COc1ccccc1N1CCN(Cc2cccc(C(=O)N3CCCCC3)c2)CC1 [Compound 84]', 18.8),
  ('CC(C)Oc1cc(F)ccc1N1CCN(Cc2cccc(C(=O)N3CCOCC3)c2)CC1 [Compound 80]', 84.8);

Need Catalepsy (%), item O=C(c1cccc(CN2CCN(c3ccccc3Cl)CC2)c1)N1CCCCCC1 [Compound 93]
20.0

Give its Catalepsy (%) value. Item: CC(C)Oc1ccccc1N1CCN(Cc2ccccc2C(=O)N2CCCCC2)CC1.Cl.Cl [Compound 111]
52

Form field: reported Catalepsy (%) of CC(C)Oc1ccccc1N1CCN(Cc2cccc(C(=O)N3CCCCC3)c2)CC1 [Compound 53]
32.4

----------
Subject Of Test: D-2 (dopamine-2) receptors (Rattus norvegicus)
Construct: The D2 assay employed a P2 fraction from the striatum, the ligand ^3H-spiperone at a concentration of 0.05 nM; from tissue; host or cells: rat striatum, P2 fraction (synaptosomal membranes), male Wistar rats
Sequence (P61169 whole entry): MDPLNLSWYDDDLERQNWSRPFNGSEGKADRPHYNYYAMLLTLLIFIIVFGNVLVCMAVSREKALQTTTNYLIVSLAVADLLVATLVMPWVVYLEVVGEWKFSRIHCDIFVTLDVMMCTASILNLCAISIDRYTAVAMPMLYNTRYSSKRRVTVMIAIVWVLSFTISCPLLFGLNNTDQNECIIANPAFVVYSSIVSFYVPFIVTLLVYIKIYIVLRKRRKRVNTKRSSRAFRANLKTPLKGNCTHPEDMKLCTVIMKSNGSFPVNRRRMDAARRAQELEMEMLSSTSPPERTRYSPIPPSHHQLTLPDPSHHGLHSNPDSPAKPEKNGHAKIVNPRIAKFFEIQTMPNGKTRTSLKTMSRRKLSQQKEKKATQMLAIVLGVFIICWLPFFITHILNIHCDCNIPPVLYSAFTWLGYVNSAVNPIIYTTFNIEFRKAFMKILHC
Assay Explanation: biochemical
Assay type: binding, male, Wistar rats
Test Settings: rat striatum P2 fraction, 3H-spiperone 0.05 nM; read-out: Receptor Binding (Ki nM) D2
Measured Attribute: Ki (nM)
API: value field is a number in nM; no unit string.

Sample records with Ki:
INSERT INTO measurements (compound, subject_of_test, measured_result) VALUES
  ('CC(C)Oc1ccccc1N1CCN(Cc2cccc(C(=S)N3CCCCC3)c2)CC1.Cl [Compound 1, Hydrochloride]', 'D-2 (dopamine-2) receptors (Rattus norvegicus)', 8),
  ('CC(C)Oc1ccccc1N1CCN(Cc2cccc(C(=O)N3C(C)(C)CCCC3(C)C)c2)CC1', 'D-2 (dopamine-2) receptors (Rattus norvegicus)', 4.7);

Can you share its Ki? I mean this compound: `CC(C)Oc1ccccc1N1CCN(Cc2cccc(C(=O)N3CCN(Cc4ccccc4)CC3)c2)CC1`
40

Bench note: what Ki did `C[C@@H]1CCC[C@H](C)N1C(=O)c1cccc(CN2CCN(c3ccccc3C#N)CC2)c1` show?
303

# get_value(readout='Ki', item= CC(C)Oc1ccccc1N1CCN(Cc2cccc(C(=O)N3CCCCC3CO)c2)CC1 (centres unmarked) )
5.2

Can you share its Ki? I mean this compound: `CC(C)Oc1ccccc1N1CCN(Cc2cccc(C(=O)N3CCC[C@H]3CO)c2)CC1`
5.1

Which Ki value is on record for `CCOC(=O)N1CCN(C(=O)c2cccc(CN3CCN(c4ccccc4OC(C)C)CC3)c2)CC1` ?
121

----------
Tested on: Male, Fischer 344 rats
Assay Explanation: Block of Conditioned Avoidance Responding (Rat) test (CAR)
Test Settings: at CAR 15 mg/kg IP
(Escape Loss) % failures to escape vs 20%: less than gives label 1; not less than gives label 0.

INSERT INTO measurements (molecule, subject_of_test, classification) VALUES
  ('CCOC(=O)C1CCCCN1C(=O)c1cccc(CN2CCN(c3ccccc3C)CC2)c1 (centres unmarked)', 'Male, Fischer 344 rats', 'label 1');

Shifting focus to the molecule that follows.
Determine if `COc1cccc(OC)c1N1CCN(Cc2cccc(C(=O)N3CCCCC3)c2)CC1` shows (Escape Loss) % failures to escape strictly lower than 20%.
label 1

----------
# maps each entry to its (Escape Loss) % failures to escape
System: Male, Fischer 344 rats
Assay Explanation: Block of Conditioned Avoidance Responding (Rat) test (CAR)
Test Settings: at CAR 5 mg/kg IP
Hi! Could you send only the number? It should be in %, unit omitted.

Reference set, count: 3
INSERT INTO assay_data (structure_smiles_string, unit_string, measured_result) VALUES
  ('O=C(c1cccc(CN2CCN(c3ccccc3Cl)CC2)c1)N1CCCCCC1', '%', 0),
  ('COc1ccc(CN2CCN(c3ccccc3OC(C)C)CC2)cc1C(=O)N1CCCCC1', '%', 50),
  ('CC(C)Oc1ccccc1C1CCN(Cc2cccc(C(=O)N3CCCCCC3)c2)CC1', '%', 2);

// lookup (Escape Loss) % failures to escape for `CC(C)Oc1ccccc1N1CCN(Cc2cccc(C(=O)N3CCCCCCC3)c2)CC1`
27

----------
Test system: Male, Fischer 344 rats
Assay Explanation: Block of Conditioned Avoidance Responding (Rat) test (CAR)
Test Settings: at CAR 15 mg/kg IP
# (Escape Loss) % failures to escape values compiled below
All answers are understood in %, so give the number only.

INSERT INTO assay_data (compound, subject_of_test, measured_attribute, measured_result) VALUES
  ('O=C(c1cccc(CN2CCN(c3cccc([N+](=O)[O-])c3)CC2)c1)N1CCCCC1', 'Male, Fischer 344 rats', '(Escape Loss) % failures to escape', 0),
  ('CCOC(=O)C1CCCCN1C(=O)c1cccc(CN2CCN(c3ccccc3OC(C)C)CC2)c1 (stereo not shown)', 'Male, Fischer 344 rats', '(Escape Loss) % failures to escape', 46),
  ('COc1ccc(OC)c(N2CCN(Cc3cccc(C(=O)N4CCCC4)c3)CC2)c1', 'Male, Fischer 344 rats', '(Escape Loss) % failures to escape', 0);

For `CCCc1ccccc1N1CCN(Cc2cccc(C(=O)N3CCCCCC3)c2)CC1` , what is its reported (Escape Loss) % failures to escape?
0

----------
List of (Escape Loss) % failures to escape values.
Tested on: Male, Fischer 344 rats
Assay Explanation: Block of Conditioned Avoidance Responding (Rat) test (CAR)
Test Settings: at CAR 15 mg/kg IP
The response must be a number in % with no trailing unit.

Some entries whose results are on file:
INSERT INTO assay_data (compound, measured_result) VALUES
  ('O=C(c1cccc(CN2CCN(c3ccccc3F)CC2)c1)N1CCCCC1 [Compound 22]', 21),
  ('O=C(c1cccc(CN2CCN(c3ccccc3C(F)(F)F)CC2)c1)N1CCCCC1 [Compound 88]', 7),
  ('CC(C)Oc1ccccc1N1CCN(Cc2cccc(C(=O)N3CCC3)c2)CC1 [Compound 51]', 0);

Now look at this one.
(Escape Loss) % failures to escape for CCN1CCCC1CNC(=O)c1cccc(CN2CCN(c3ccccc3OC(C)C)CC2)c1 (centres unmarked) [Compound 76] ?
0

----------
Test system: Male, Fischer 344 rats
Assay Explanation: Block of Conditioned Avoidance Responding (Rat) test (CAR)
Test Settings: at CAR 5 mg/kg IP
Measured Attribute: (Escape Loss) % failures to escape (%)
All answers are understood in %, so give the number only.

Answered examples (5):
INSERT INTO results (structure_smiles_string, unit_string, measured_result) VALUES
  ('CC(C)Oc1ccccc1N1CCN(Cc2cccc(C(=O)N3CCN(c4ccccc4OC(C)C)CC3)c2)CC1', '%', 1),
  ('CC(C)Oc1ccccc1N1CCN(Cc2cccc(C(=O)N(C)Cc3ccccc3)c2)CC1', '%', 1),
  ('CCOC(=O)N1CCN(C(=O)c2cccc(CN3CCN(c4ccccc4OC(C)C)CC3)c2)CC1', '%', 1),
  ('CC(C)Oc1ccccc1N1CCN(Cc2cccc(C(=O)N3[C@H](C)CCC[C@@H]3C)c2)CC1', '%', 10),
  ('CC(C)Oc1ccccc1N1CCN(Cc2cccc(S(=O)(=O)N3CCCC3)c2)CC1', '%', 0);

Fill in the recorded (Escape Loss) % failures to escape for this molecule, with Male, Fischer 344 rats as test system: `CCOC(=O)C1CCN(C(=O)c2cccc(CN3CCN(c4ccccc4OC(C)C)CC3)c2)CC1`
0

----------
Tested on: Male, Fischer 344 rats
Assay Explanation: Block of Conditioned Avoidance Responding (Rat) test (CAR)
Test Settings: at CAR 15 mg/kg IP
Listed here are compounds together with their documented (Escape Loss) % failures to escape.
Give your result in % as a bare value.

INSERT INTO assay_data (compound, subject_of_test, measured_result) VALUES
  ('CC(C)Oc1ccccc1N1CCN(Cc2cccc(C(=O)N3CCC[C@H]3C(=O)OCc3ccccc3)c2)CC1 [Compound 13]', 'Male, Fischer 344 rats', 0),
  ('O=C(c1cccc(CN2CCN(c3cccc(C(F)(F)F)c3)CC2)c1)N1CCCCC1 [Compound 92]', 'Male, Fischer 344 rats', 3),
  ('CC(C)Oc1ccccc1N1CCN(Cc2cccc(C(=O)NCCCCCCNC(=O)OC(C)(C)C)c2)CC1 [Compound 98]', 'Male, Fischer 344 rats', 0);

Suppose we examine the compound O=C(c1cccc(CN2CCN(c3cccc4ccccc34)CC2)c1)N1CCCCC1 [Compound 35] ; what (Escape Loss) % failures to escape value has been reported?
0

Entry COc1cc2c(cc1OC)CN(C(=O)c1cccc(CN3CCN(c4ccccc4OC(C)C)CC3)c1)CC2 [Compound 60] has what (Escape Loss) % failures to escape?
7

Requested read-out: (Escape Loss) % failures to escape. Entry: CCCCN(CCCC)C(=O)c1cccc(CN2CCN(c3ccccc3OC(C)C)CC2)c1 [Compound 69]
0

Hey, just so you know, these numbers are from patent EP0563345B1.
